Tested on: human hepatic stellate cells LX-2
Assay: Anti-fibrosis activity test: inhibition of proliferation of human hepatic stellate cells LX-2 (CCK-8)
Assay type: cell-based
Settings: Homo sapiens, 48 h, human hepatic stellate cells LX-2, CCK-8, 48 hours
METRIC_NAME: IC50

molecule="O=C1c2c(nc3ccccc3c2OCCO)-c2cccn21 [Compound 11b]" observed_value="0.05 to 5 mM"
molecule="N#Cc1ccc2c(OCc3ccccc3F)c3c(nc2c1)-c1cccn1C3=O [Compound 516b]" observed_value="0.05 to 5 mM"
molecule="N#Cc1cccc2c(=O)c3c(n(Cc4ccccc4F)c12)-c1cccn1C3=O [Compound 456a]" observed_value="< 0.05 mM"
molecule="N#Cc1ccc2c(c1)c(=O)c1c(n2Cc2ccc(Cl)cc2)-c2cccn2C1=O [Compound 625a]" observed_value="0.05 to 5 mM"
molecule="O=C1c2c(nc3ccccc3c2OCc2cc(F)cc(F)c2)-c2cccn21 [Compound 579b]" observed_value="0.05 to 5 mM"
molecule="O=C(O)Cn1c2c(c(=O)c3cc(F)ccc31)C(=O)n1cccc1-2 [Compound 153a]" observed_value="< 0.05 mM"
molecule="O=C1c2c(nc3cc(C(F)(F)F)ccc3c2O)-c2cccn21 [Compound 536b]" observed_value="0.05 to 5 mM"
molecule=CC(C)=CCOc1c2c(nc3ccccc13)-c1cccn1C2=O observed_value="0.05 to 5 mM"
molecule="O=C1c2c(n(CC(F)(F)F)c3ccccc3c2=O)-c2cccn21 [Compound 657a]" observed_value="0.05 to 5 mM"
molecule="O=C1c2c(n(Cc3ccc(Br)cc3)c3ccccc3c2=O)-c2cccn21 [Compound 594a]" observed_value="0.05 to 5 mM"
molecule="O=C1c2c(nc3cc(F)ccc3c2OCc2cccc(F)c2)-c2cccn21 [Compound 491b]" observed_value="0.05 to 5 mM"
molecule="CN(C)CCCOc1c2c(nc3ccccc13)-c1cccn1C2=O [Compound 658b]" observed_value="0.05 to 5 mM"
molecule="COc1c2c(nc3cc(N4CCNCC4)ccc13)-c1cccn1C2=O [Compound 328b]" observed_value="0.05 to 5 mM"
molecule="O=C1c2c(nc3cccc(F)c3c2OCc2ccc(Cl)cc2)-c2cccn21 [Compound 471b]" observed_value="0.05 to 5 mM"
molecule="O=C1c2c(nc3ccccc3c2OCc2cc(C(F)(F)F)ccc2Cl)-c2cccn21 [Compound 611b]" observed_value="0.05 to 5 mM"
molecule="O=C1c2c(nc3cc(N4CCNCC4)cc(F)c3c2OCc2ccc(F)cc2)-c2cccn21 [Compound 646b]" observed_value="0.05 to 5 mM"
molecule="O=C1c2c(nc3ccccc3c2OCc2c(F)c(F)c(F)c(F)c2F)-c2cccn21 [Compound 586b]" observed_value="0.05 to 5 mM"
molecule="O=C1c2c([nH]c3cc(Cl)ccc3c2=O)-c2cccn21 [Compound 500a]" observed_value="< 0.05 mM"
